test protocol: Pharmacokinetic study, intravenous administration
condition set: mouse, in vivo, male CD-1 mice, 1 mg/kg
recorded metric: half-life (min)
Give the value in min but do not write min after it.

Lab note: measured half-life of CC1(C)CCc2c(nc3sc(C(N)=O)c(N)c3c2-c2cncs2)C1 was 34

###

test target: recombinant eEF2K (Homo sapiens (Human), UniProt O00418)
test protocol: eEF2K Kinase-Glo luminescent kinase assay (ATP consumption, peptide substrate)
condition set: average of two to four separate experimental measurements, each the average of three replicates
recorded metric: IC50 (µM)
Give the value in µM but do not write µM after it.

Lab note: measured IC50 of NC(=O)c1sc2nc3c(c(-c4ccc(Cl)o4)c2c1N)CC(c1ccccc1)CC3 (stereo not drawn) [Compound 4] was 10000

Next:
Lab note: measured IC50 of CC1(C)CCc2c1nc1sc(C(N)=O)c(N)c1c2-c1ccc(Br)s1 [Compound 27] was 1.5

Lab note: measured IC50 of NC(=O)c1sc2nc3c(c(-c4ccc(Cl)o4)c2c1N)CC(c1ccccc1)C/C3=C\c1ccc(Cl)o1 (stereo not drawn) [Compound 3] was 10000

Lab note: measured IC50 of CCC(C)c1c2c(nc3sc(C(N)=O)c(N)c13)C(C)(C)CC2 (stereo not drawn) [Compound 26] was 1

Lab note: measured IC50 of CC1(C)CCc2nc3sc(C(N)=O)c(N)c3c(-c3ccsc3)c2C1 [Compound 20] was 2.2
